# Target Desc: UniProt P05979
Endpoint Name: IC50 (nM)

Compound Structure	Measured Number
Cc1cc(Nc2cc(C(C)(C)C)c(O)c(C(C)(C)C)c2)n2nccc2n1	300

----------
# Target Desc: cyclooxygenase (Ovis aries, UniProt P05979)
# Construct: sheep seminal vesicle microsome, which is a crude enzyme solution; from tissue; host or cells: sheep seminal vesicle microsomes (crude enzyme solution)
# Sequence (P05979 25-600): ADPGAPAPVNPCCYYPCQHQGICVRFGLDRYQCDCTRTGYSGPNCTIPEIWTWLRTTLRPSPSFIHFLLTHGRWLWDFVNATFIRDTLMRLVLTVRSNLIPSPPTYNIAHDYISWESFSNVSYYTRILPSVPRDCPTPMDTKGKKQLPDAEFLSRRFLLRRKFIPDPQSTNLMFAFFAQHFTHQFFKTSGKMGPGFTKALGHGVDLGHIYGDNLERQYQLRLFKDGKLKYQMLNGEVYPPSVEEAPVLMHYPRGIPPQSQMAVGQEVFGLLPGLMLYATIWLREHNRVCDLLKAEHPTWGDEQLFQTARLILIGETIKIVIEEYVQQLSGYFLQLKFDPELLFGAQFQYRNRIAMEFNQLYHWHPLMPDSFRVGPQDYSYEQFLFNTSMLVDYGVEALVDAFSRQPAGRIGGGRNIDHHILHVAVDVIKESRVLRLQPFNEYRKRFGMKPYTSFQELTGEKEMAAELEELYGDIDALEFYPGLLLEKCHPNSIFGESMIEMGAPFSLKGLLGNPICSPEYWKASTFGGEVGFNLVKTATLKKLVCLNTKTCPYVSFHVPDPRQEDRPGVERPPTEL
# Test Name: Cyclooxygenase inhibitory activity test 2 (fixed concentration, sheep seminal vesicle microsome)
# Assay type: biochemical
# Test Settings: same fixed concentration, 3×10^-7 M; PGE2 producing rate compared with control group
# Protocol: The preparation of sheep seminal vesicle microsome, which is a crude enzyme solution, and the analysis of the cyclooxygenase activity were carried out according to the method of Miyamoto et al. as follows [cf. That is, a test compound was added to a microsome solution, and the mixture was incubated at 24° C. for two minutes, and then, thereto was added a substrate, ^14 C-arachidonic acid. […]
Here, each record is paired with measured inhibition at 0.3 µM data.

Compound Structure	Target Desc	Quantity Unit	inhibition at 0.3 µM
Cc1cc(Nc2cc(C(C)(C)C)c(O)c(C(C)(C)C)c2)n2nccc2n1	cyclooxygenase (Ovis aries, UniProt P05979)	%	65
CCCCc1cc(Nc2cc(C(C)(C)C)c(O)c(C(C)(C)C)c2)n2nccc2n1	cyclooxygenase (Ovis aries, UniProt P05979)	%	48.2
CCc1cc(Nc2cc(C(C)(C)C)c(O)c(C(C)(C)C)c2)n2nccc2n1	cyclooxygenase (Ovis aries, UniProt P05979)	%	55.9
CC(C)(C)c1cc(Nc2cc(C3CC3)nc3ccnn23)cc(C(C)(C)C)c1O	cyclooxygenase (Ovis aries, UniProt P05979)	%	50.5
